tested on: human umbilical vein endothelial cells (HUVEC); assay: MTT toxicity assay, normal cells HUVEC; format: cell-based; conditions: Homo sapiens, HUVEC; 72 h drug exposure, MTT assay, normal cells; read-out: IC50 (μM) ± SD HUVEC
property: IC50 (µM)
The reply should be a number in µM, with the unit left off.

Query string: Specify IC50 for COc1cc(C(=O)c2nn(-c3ccc(N)cc3)cc2N)cc(OC)c1OC [4k] and stop.
Result string: 0.57

----------
test system: A549 cells; experiment: MTT antiproliferative assay, A549; format: cell-based; settings: Homo sapiens, 72 h drug exposure, read-out: IC50 (μM) ± SD A549
property: IC50 (µM)
Numbers only here, please. The scale is µM.

Query string: Look up and state reported IC50 for COc1cc(C(=O)c2nn(-c3ccc(N)cc3)cc2N)cc(OC)c1OC
Result string: 0.04

Query string: In one line, give reported IC50 of the entry COc1cc(C2=NCC(=O)Nc3cn(-c4ccccc4)nc32)cc(OC)c1OC .
Result string: 0.063

----------
Would you kindly list IC50 for each of these molecules?
tested on: MCF-7 cells; test: MTT antiproliferative assay, MCF-7; assay type: cell-based; details: Homo sapiens, MCF7; 72 h drug exposure, MTT assay; read-out: IC50 (μM) ± SD MCF-7

Query string: Supply reported IC50 belonging to this molecule: COc1cc(C(=O)c2nn(-c3ccc(Cl)cc3)cc2N)cc(OC)c1OC
Result string: 0.098 µM

Query string: # return recorded IC50 for entry COc1cc(C2=NCC(=O)Nc3cn(-c4cccc(C)c4)nc32)cc(OC)c1OC
Result string: 0.665 µM

Query string: Output measured IC50 for this item: COc1ccc(-n2cc(N)c(C(=O)c3cc(OC)c(OC)c(OC)c3)n2)cc1
Result string: 0.068 µM

Query string: Output IC50 of COc1cc(C2=NNC(=S)Nc3cn(-c4ccccc4F)nc32)cc(OC)c1OC
Result string: 0.398 µM

Query string: Identify measured IC50 corresponding to COc1cc(C(=O)c2nn(-c3ccccc3F)cc2N)cc(OC)c1OC
Result string: 0.404 µM

Query string: Give a short answer stating reported IC50 for COc1cc(C(=O)c2nn(-c3ccccc3)cc2N)cc(OC)c1OC .
Result string: 0.034 µM

Query string: Read the entry COc1cc(C2=NCC(=O)Nc3cn(-c4cccc(F)c4)nc32)cc(OC)c1OC and write its reported IC50.
Result string: 3.01 µM

Query string: Supply recorded IC50 for COc1cc(C2=NNC(=S)Nc3cn(-c4cccc(C)c4)nc32)cc(OC)c1OC here.
Result string: 0.749 µM

Query string: Identify the reported IC50 for the following entry. COc1cc(C2=NCC(=O)Nc3cn(-c4ccc(C)cc4)nc32)cc(OC)c1OC
Result string: 1.38 µM

Query string: Give me measured IC50, please, for this molecule: COc1cc(C2=NCC(=O)Nc3cn(-c4ccccc4F)nc32)cc(OC)c1OC
Result string: 1.08 µM

Query string: Identify measured IC50 associated with COc1cc(C2=NNC(=S)Nc3cn(-c4ccc(Cl)cc4)nc32)cc(OC)c1OC
Result string: 0.662 µM

Query string: Give the measured IC50 for COc1cc(C(=O)c2nn(-c3ccc(N)cc3)cc2N)cc(OC)c1OC
Result string: 0.031 µM

Query string: # return recorded IC50 for entry COc1cc(C(=O)c2nn(-c3ccccc3C)cc2N)cc(OC)c1OC
Result string: 2.2 µM

Query string: Give the reported value of IC50 for this record: COc1cc(C(=O)c2nn(-c3cccc(C)c3)cc2N)cc(OC)c1OC
Result string: 0.224 µM

Query string: Give the reported IC50 for this molecule. COc1cc(C2=NNC(=S)Nc3cn(-c4ccccc4)nc32)cc(OC)c1OC
Result string: 2.98 µM

Query string: Give IC50 for the following molecule: COc1cc(C2=NNC(=S)Nc3cn(-c4cccc(F)c4)nc32)cc(OC)c1OC
Result string: 6.9 µM

Query string: Specify reported IC50 for the molecule shown: COc1cc(C(=O)c2nn(-c3ccc(C)cc3)cc2N)cc(OC)c1OC
Result string: 3.9 µM

Query string: For the molecule COc1cc(C(=O)c2nn(-c3cccc(F)c3)cc2N)cc(OC)c1OC , give its reported IC50.
Result string: 0.35 µM

Query string: Give the reported IC50 for this molecule. COc1cc(C(=O)c2nn(-c3ccc([N+](=O)[O-])cc3)cc2N)cc(OC)c1OC
Result string: 0.391 µM

Query string: Please list IC50 recorded for the molecule COc1cc(C2=NNC(=S)Nc3cn(-c4ccc(C)cc4)nc32)cc(OC)c1OC
Result string: 0.123 µM

----------
tested on: MCF-7 cells; assay: MTT antiproliferative assay, MCF-7; format: cell-based; conditions: Homo sapiens, MCF7; 72 h drug exposure, MTT assay; read-out: IC50 (μM) ± SD MCF-7
property: IC50 (µM)
Report only the number, with the unit µM understood.

Query string: For the molecule COc1ccc(-n2cc3c(n2)C(c2cc(OC)c(OC)c(OC)c2)=NNC(=S)N3)cc1 , report IC50.
Result string: 1.57

Query string: For the molecule COc1cc(C(=O)c2nn(-c3ccc(F)cc3)cc2N)cc(OC)c1OC , give its measured IC50 value.
Result string: 0.162

Query string: Please give measured IC50 of the following entry: COc1cc(C2=NCC(=O)Nc3cn(-c4ccc(Cl)cc4)nc32)cc(OC)c1OC
Result string: 0.857

Query string: Indicate its recorded IC50; the molecule in question is COc1cc(C2=NCC(=O)Nc3cn(-c4ccc(F)cc4)nc32)cc(OC)c1OC
Result string: 1.86

Query string: For the molecule COc1cc(C2=NNC(=S)Nc3cn(-c4ccc(F)cc4)nc32)cc(OC)c1OC , give its measured IC50 value.
Result string: 8.42

----------
tested on: HCT-116 cells; experiment: MTT antiproliferative assay, HCT-116; type: cell-based; details: Homo sapiens, 72 h drug exposure, read-out: IC50 (μM) ± SD HCT-116
Please provide measured IC50 for the entries that follow.
Enter the number, and then the unit.

Query string: Using the record for COc1cc(C(=O)c2nn(-c3ccc(N)cc3)cc2N)cc(OC)c1OC [4k] , state its measured IC50.
Result string: 0.01 µM

Query string: Provide only the value of recorded IC50 for COc1cc(C2=NCC(=O)Nc3cn(-c4ccccc4)nc32)cc(OC)c1OC [5a]
Result string: 0.163 µM
